B1: Transcriptional repressor p66-beta, residues 415 to 455; numbered along this chain, Q8WXI9 (parent)
chain: VEPFVCAQCRTDFTPHWKQEKNGKILCEQCMTSNQKKALKA

# Variants of: B1
# procedure-text: abundance fitness (aPCA) (normalised: wild type 0, dead -1); higher = more abundant; growth selection in yeast, the domain comes from the species named
# assay-conditions: Homo sapiens
property-name: abundance fitness

* P15L | -0.018
* L39N | 0.54
* S33C | -0.113
* E20P | -0.631
* Q29I | -0.177
* T14L | -0.035
* E28N | 0.03
* R10S | 0.717
* H16Q | -0.14
* A38H | -0.32
* Q29M | -0.14
* L39C | -0.1
* E20S | -0.115
* P3K | -0.118
* F13M | 0.192
* T32K | 0.045
* L39V | 0.078
* T14Y | 0.264
* V5I | -0.126
* M31V | -0.083
* P3R | 0.121
* W17Y | 0.557
* C9T | -0.203
* T11V | 0.587
* Q29C | -0.491
* C30V | -0.664
* V5C | -0.351
* R10I | 0.521
* C9Q | -0.09
* D12P | -0.118
* Q8M | 0.657
* C9A | -0.417
* K21M | -0.054
* K18D | -0.099
* T11F | -0.306
* K18E | 0.098
* N34F | -0.206
* K21G | 0.145
* E28D | 0.08
* Q19V | 0.159
* C9G | -0.262
* W17V | 0.082
* K40V | -0.121
* K36I | -0.198
* F13S | -0.164
* Q29G | -0.15
* G23E | 0.189
* V5L | 0.18
* K21V | -0.026
* D12H | 0.081
* Q8N | 0.741
* A7I | 0.078
* A41C | -0.215
* L26G | -0.304
* A7C | 0.325
* C27L | -1.32
* C9S | -0.733
* C27M | -1.31
* N34W | -0.67
* D12Y | -0.025
* L26R | -0.145
* K37M | 0.095
* M31E | -0.033
* K40E | 0.084
* S33F | -0.919
* T14E | -0.041
* K18V | 0.011
* I25L | -0.158
* A7T | 0.208
* E2G | -0.299
* V5D | -0.568
* H16Y | -0.004
* G23M | 0.422
* K21Q | 0.235
